TARGET OR SYSTEM: Ataxin-2 (Homo sapiens)
MEASUREMENT NOTES: qHTS for Inhibitors of ATXN expression.
Type: functional
About 1,900 (0.47%) of roughly 400,000 compounds were called active. Roughly 14% stayed inconclusive and do not appear here. The rule behind the calls is not given here. Only a selection was taken, and actives are over-represented in it overall.
Pick one and only one: active, inactive

Task: For Cc1cc(C)cc(N2C(=O)NC(=O)/C(=C\c3cc(C)n(C)c3C)C2=O)c1 , what call appears in the results of this test?
Output: inactive

Task: For Oc1nc2ccccc2n1C1CCN(C(c2cc3ccccc3o2)c2nnnn2Cc2ccccc2)CC1 (stereo not drawn) , what call appears in the results of this test?
Output: active

Task: For CN(C)c1c([N+](=O)[O-])cc(N2C(=O)C=CC2=O)cc1[N+](=O)[O-] , what call appears in the results of this test?
Output: active
